- System tested: Replicase polyprotein 1ab (Severe acute respiratory syndrome coronavirus, UniProt P0C6X7)
- Experiment summary: Inhibition of SCV helicase assessed as duplex-DNA unwinding by FRET based assay
Below is a list of entries, each paired with its recorded IC50 value.
Value kind: IC50

Smiles repr	Recorded measurement
O=C(O)C(=O)CC(=O)c1ccccc1OCc1ccccc1	> 50 µM
O=C(O)C(=O)CC(=O)c1ccc(OCc2ccc(Cl)cc2)cc1	> 50 µM
O=C(O)C(=O)CC(=O)c1cccc(OCc2ccccc2)c1	> 50 µM
